test conditions: buffer; pH 7.4; 200.0 µM
outcome measure: solubility kinetic

// below: answered molecules
INSERT INTO measurements (molecule, outcome_measure, observed_value) VALUES
  ('C=CCNC(=S)/N=c1/ccccn1C', 'solubility kinetic', '> 31.1 µg/mL'),
  ('Cc1nccn1Cc1ccc(Cl)nc1', 'solubility kinetic', '> 31.1 µg/mL'),
  ('Cc1cc(C)cc(NC(=O)CCN2CCOCC2)c1', 'solubility kinetic', '> 39.4 µg/mL'),
  ('CC(=O)C1=C(O)C(=O)N(c2ccccn2)C1c1ccc(Cl)cc1 (stereo unspecified)', 'solubility kinetic', '40.9 µg/mL'),
  ('OC(CNC1CCCCC1)C(F)(F)F (stereo unspecified)', 'solubility kinetic', '> 31.7 µg/mL');

Alright, here's another molecule for you.
# input molecule: Cn1c(N)cc(-c2ccc(F)cc2)c(C#N)c1=O ; wanted: its solubility kinetic
> 36.5 µg/mL

* * *

test conditions: buffer; pH 7.4; 200.0 µM
solubility kinetic by entry:

Returns the measured solubility kinetic for the input compound. Input: COc1ccc(CC(=O)NCc2ccc(F)cc2)cc1S(=O)(=O)N1CCOCC1
> 63.4 µg/mL

// solubility kinetic lookup, key: COc1cc2c(cc1OC)CN(C(=O)c1ccc([N+](=O)[O-])o1)CC2
> 49.8 µg/mL

Suppose we examine the compound C=CCn1cnnc1SCC(=O)N(C1CCCCC1)C1CCS(=O)(=O)C1 (stereo not drawn) ; what solubility kinetic value has been reported?
> 59.8 µg/mL

* * *

test conditions: buffer; pH 7.4; 200.0 µM
Here the recorded solubility kinetic is given for each entry.

INSERT INTO measurements (molecule, observed_value) VALUES
  ('CCc1ccc(S(=O)(=O)Nc2ccccn2)cc1', '> 39.3 µg/mL');

Look at this molecule and give its reported solubility kinetic. Cn1c(SCc2ccccc2F)nc2ccccc2c1=O
< 0.3 µg/mL

Quick one: solubility kinetic of CC(=O)c1ccc(S(=O)(=O)Nc2ccc(S(=O)(=O)N3CCCCC3)cc2)cc1 ?
> 63.4 µg/mL

Entry CCN(CC(=O)NCc1cccs1)C(=O)c1cccc(Cl)c1 : reported solubility kinetic = ?
> 50.5 µg/mL

// returns reported solubility kinetic for input Cc1cc(NC(=O)CSc2nc3cc(C)c(C)cc3cc2C)no1
< 0.2 µg/mL

solubility kinetic lookup needed for O=C(c1ccc(N2C(=O)c3ccccc3C2=O)cc1)N1CCCCC1 , thanks.
> 50.2 µg/mL

* * *

In this section, each of the compounds is paired with its reported solubility kinetic.
test conditions: buffer; pH 7.4; 200.0 µM
Non-standard residues stand in square brackets, D forms with d. Residues, ends and D or L forms follow the SMILES beside them. pGlu = O=C1CC[C@@H](C(=O)O)N1; Thz = O=C(O)[C@@H]1CSCN1

Here are 4 compounds together with their reported answers.
INSERT INTO measurements (compound, observed_value) VALUES
  ('O=C(Nc1cccnc1)NC1CCCCC1', '> 32.9 µg/mL'),
  ('N#CCCN(Cc1cccs1)C(=O)Nc1ccc(F)cc1', '> 45.5 µg/mL'),
  ('Cc1cccc(C)c1N(CC(=O)N1CCOCC1)S(C)(=O)=O', '> 49 µg/mL'),
  ('Cc1cc2[nH]cnc2c([N+](=O)[O-])c1C', '> 28.7 µg/mL');

So what's the measured solubility kinetic for this one? CC(C)CCNC(=O)C1CC(=O)N(CCc2ccccc2)C1 (stereo unspecified)
> 45.4 µg/mL

// query solubility kinetic value for entry O=C(O)c1cc(S(=O)(=O)NCCOc2ccccc2)ccc1Cl
> 53.4 µg/mL

Reported solubility kinetic, compound COc1ccc(Cl)cc1NC(=O)CN(C)C(=O)c1cccc(S(=O)(=O)N2CCN(C)CC2)c1 : ____
67.4 µg/mL

I would be grateful if you could share the reported solubility kinetic for COc1ccc(CCC(C)N2CCOCC2)cc1 (stereo unspecified) .
31.9 µg/mL

Param item = CN(Cc1ccc(F)cc1)C(=O)CNC(=O)C1CCCCC1 ; retrieve measured solubility kinetic.
> 46 µg/mL

Data request, read-out solubility kinetic, for CCNS(=O)(=O)c1ccc(CCC(=O)NCc2ccncc2)cc1
> 52.1 µg/mL

Which value of solubility kinetic has been reported for O=C1CC[C@@H](C(=O)N2CSC[C@H]2C(=O)O)N1 ([pGlu]-[Thz]-OH) in the records?
> 36.6 µg/mL

What does the record list as solubility kinetic for COc1ccc(OC)c(C(O)C(C)N)c1.Cl (stereo unspecified) ?
> 37.2 µg/mL

Report solubility kinetic for CCCNc1nc2c(c(=O)[nH]c(=O)n2C)n1CCOc1ccccc1 please.
4 µg/mL

So what does the record say about solubility kinetic for Cc1cc(NC(=O)NC(=O)c2ccccc2)no1 ?
2.8 µg/mL

Item O=C(/C=C/c1ccco1)N1CCc2ccccc21 has what recorded solubility kinetic?
31.4 µg/mL

// lookup solubility kinetic for COc1ccc(CN(C)CC(=O)NC(=O)NC2CCCCC2)cc1
> 50 µg/mL

Fill blank: measured solubility kinetic of the compound Cc1ccc(S(=O)(=O)NC(=O)c2cccc(C)c2)cc1 is ____.
> 43.4 µg/mL

Fill in: solubility kinetic of CSCCC(NS(=O)(=O)c1ccccc1F)C(=O)NCC(c1ccco1)N(C)C (stereo unspecified) is ___
> 66.5 µg/mL

Given the entry O=C(COC(=O)c1ccc(Cl)nc1)Nc1ccccc1OC(F)F , report its measured solubility kinetic.
> 53.5 µg/mL

So what does the record say about solubility kinetic for COC(=O)c1ccc(C(=O)N=c2sccn2C)cc1 ?
13.9 µg/mL

Entry under review: Cc1ccc(-c2c(=O)n(O)c3ccccc3[n+]2[O-])cc1 . Reported solubility kinetic?
40.1 µg/mL
